Hey, just so you know, these numbers are from patent US20060194720A1.

# target_under_test: human GLP-1 receptor (human, UniProt P43220 24-463)
# measurement_notes: cell-based or functional assay
Where no end group is shown, it is not given here.
Rule: Cyclic AMP-producing activity, relative to naturally occurring GLP-1 (=100%), at × 10^-9 M of 90% or more gives true (1); anything lower gives false (0).

Task: # check: Cyclic AMP-producing activity, relative to naturally occurring GLP-1 (=100%), at × 10^-9 M of HSEGTFTSDVSSYLEGQAAKEFIAWLVKGKKR-NH2 [[Ser^8]-GLP-1 (7-35)-Lys-Lys-Arg-NH2] is greater than or equal to 90%
Output: false (0)

Task: Has HSEGTFTSDVSSYLEGQAAKEFIAWLVKGR-NH2 [[Ser^8]-GLP-1 (7-35)-Arg-NH2] a recorded Cyclic AMP-producing activity, relative to naturally occurring GLP-1 (=100%), at × 10^-9 M greater than or equal to 90%?
Output: false (0)

Task: Identify whether the reported Cyclic AMP-producing activity, relative to naturally occurring GLP-1 (=100%), at × 10^-9 M of the following binder is 90% or greater: HSEGTFTSDVSSYLEGQAAKEFIAWLVKGKR-NH2 [[Ser^8]-GLP-1 (7-35)-Lys-Arg-NH2]
Output: false (0)

Task: Would you say HSEGTFTSDVSSYLEGQAAKEFIAWLVKGRRRR-NH2 [[Ser^8]-GLP-1 (7-35)-Arg-Arg-Arg-Arg-NH2] shows Cyclic AMP-producing activity, relative to naturally occurring GLP-1 (=100%), at × 10^-9 M at minimum 90%?
Output: true (1)
